- PROTOCOL SUMMARY: soluble fraction after stress (log2 fold change); higher = more stays soluble; pooled small domains, quantitative proteomics;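 note: 20 min heating vs room temperature control held 20 min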
- ASSAY CONDITIONS: stress: 75 degC
Each item that follows carries a reported soluble fraction (log2).
ENDPOINT NAME: soluble fraction (log2)

{"QUERY SEQUENCE": "HMQPETIEDATNLYLEAARATLQLIEQNNVIARDVKRLLEHLDNDMARIETLLAEMLSRRDHWLRHIH", "OBSERVED": 0.148}
{"QUERY SEQUENCE": "HMKHFTYEEMELMSIYDPGTREGLIANLEEMRGYLEPDETELRELTDSALEKLRELSDADYEQLELI", "OBSERVED": -0.516}
{"QUERY SEQUENCE": "HMAIHTSVTEHGEHDLTVRMEMEQVFAIEMAVVSHEQATMLERTFKANAEAIYQKLLGVMTQEYP", "OBSERVED": -2.42}
{"QUERY SEQUENCE": "HMNVEGEVVVPNVIGRTMKDVAVILSDLGLRMEAEGTGVAKSSQPQHGTSVKRGTVVQVRFEPLSVN", "OBSERVED": 0.648}
{"QUERY SEQUENCE": "HMKSATGKIPDFISDLPVDEFVRELIVTNAFQPLNKFKEVQNHIGSALKIYVDELTEKRANGTVHILYSHK", "OBSERVED": 0.46}
{"QUERY SEQUENCE": "HMRVPTVIGMDEGTAKATLANASLKSNIVYESDETKENGKVLSQGIEQNKEVKAGTTVEIKVNKIE", "OBSERVED": 0.116}
{"QUERY SEQUENCE": "HMGTTMLEVPNFVGEVFKEIDPEKYPNLRLVDSDYTYSNEYEAGKVISQDPVARTQVAEGSTVKLVIS", "OBSERVED": 0.319}
{"QUERY SEQUENCE": "HMEEDPVISQAQRQALFKLAHDHFGQEEGNKVILRLIGEHGLRSTTNMTASVYKTVTDALIQVIESMVEG", "OBSERVED": -0.45}
{"QUERY SEQUENCE": "HMGISVEVPDLKNMSVAEAGSLLKNSGLSYAVVDSDYVKTISPGKILDQNPGRGLRVKKGRIVYLTINSL", "OBSERVED": -1.69}
{"QUERY SEQUENCE": "HMKVEIVRVVKDIHIGDEITKDMVRTVEVGGYNLPDGVVKDTATVIGRFASADMVPGDYIISSKIADAP", "OBSERVED": -0.378}
{"QUERY SEQUENCE": "HMNKLKALREEQGLSMMEIAKQLNMPYTTYVNYEKGTREPNSEMLIKFSKFFNVTIDYLIGNSEQKN", "OBSERVED": -2.48}
{"QUERY SEQUENCE": "HMAPLVTLEADGNGAVKLSNLAGHSIREVAGALGGAGLSLIPVGSGTSWKQNPAPGTVLHSGDTVTVYF", "OBSERVED": 0.177}
{"QUERY SEQUENCE": "HMTELVIPDYFSKALAKNKKAKQVFEAFAYSHRKEYLQWITEAKTEETRNKRMATAIEWIAEGKGRNWKYA", "OBSERVED": -3.45}
{"QUERY SEQUENCE": "HMNDSGIIGVVINDHEKYEGHVLEDGFISSSLSALSREIDVAGYFMMVKTVVYEGFFQELKGIGNV", "OBSERVED": 0.16}
{"QUERY SEQUENCE": "HMPLLSEWDAALEELWAKLGDVPMDPETERMDAPFLGFPAGTPREDIWHWFDERHSKGVAHLLYG", "OBSERVED": -2.46}
{"QUERY SEQUENCE": "HMVDPELFIWVESSKEPVYHLAYKIELFVHSTDPQDDVPVHRWQVFVDAHNGNILDKFDEVR", "OBSERVED": -0.292}
{"QUERY SEQUENCE": "HMDPTHDMHFLVKDQVTGQPLPNMPYRLQLDNGQTLTGRTDALGMTEKISGHSPHIASIEVPY", "OBSERVED": 0.117}
{"QUERY SEQUENCE": "HMEILNYVVSDGQSGIRIDRYLSDSNEDLSRSYIQKLLKEQKVTVQGTFVKANYKVQAGDVITVEVPDMA", "OBSERVED": -0.884}
{"QUERY SEQUENCE": "HMNESEALIARIENLPPIEDLTEKHAEEVKALMTVYSKLKMSDRILVTNYGVLKKDFDALVKKGFLTNED", "OBSERVED": -0.321}
{"QUERY SEQUENCE": "HMPNIQLARNLKYLRLAYGLTQDDLGAFLNISRQAYSNYENLKRSPDLDSLIRLASLYHLSLDDLVSR", "OBSERVED": -3.31}
{"QUERY SEQUENCE": "HMALGRTGEVYLPIPAGRAGHGKISITLQGALREVDAVTAGEALPRGTSVRVVDVAGNGVLLVEK", "OBSERVED": -0.206}
{"QUERY SEQUENCE": "HMGMESFWNRVANLLNTSTVVELAQILDVKRSTLSSWIHSDRRPPMEVLLKITRLTGVDIHRLE", "OBSERVED": -2.59}
{"QUERY SEQUENCE": "HMQTMTAGERREAILRELEQAQGPVSASALAKRFHVSRQAVVGDVAMLRALNSPIAATPRGYVLTR", "OBSERVED": -0.322}
{"QUERY SEQUENCE": "HMDAQEAAWARKMMETLPEKQKLSVALRIEEGLSFKEIGEIIGSSEGAARVNYFHGIRRLRELL", "OBSERVED": -0.789}
{"QUERY SEQUENCE": "HMALHLPTTTINGRQYYYFKSKEKITVYGLSKRLGLTRQEIVEHNPSAVDGIKRGSTLYFPVDEFAD", "OBSERVED": -2.12}
{"QUERY SEQUENCE": "HMEQETVTVPDLVGKDVVAAQAELHEMGLSGKPDGTGTTVVSQFPVAGARVLKHTNVILYTED", "OBSERVED": 0.296}
